# Protocol: Plasma PK of H3B-6545 capsules in fasted patients, phase 1 dose escalation
# Format: in vivo, human
# Test conditions: female, human, plasma, oral, 600 mg, Cycle 1 Day 1; 600 mg QD capsules, fasted patients; Geometric Mean (GeoCV %); read-out: Vz/F
Property label: Vd/F

Any idea what its Vd/F is? The molecule is CN(C)C(=O)/C=C/CNCCOc1ccc(/C(=C(/CC(F)(F)F)c2ccccc2)c2ccc3[nH]nc(F)c3c2)cn1
344 L

###

# Protocol: Plasma PK of H3B-6545 capsules in fasted patients, phase 1 dose escalation
# Format: in vivo, human
# Test conditions: female, human, plasma, oral, 600 mg, Cycle 1 Day 1; 600 mg QD capsules, fasted patients; Median (Min, Max)
Property label: Tmax (h)
Return type: number; implicit unit h.

Requested field: Tmax. Item: CN(C)C(=O)/C=C/CNCCOc1ccc(/C(=C(/CC(F)(F)F)c2ccccc2)c2ccc3[nH]nc(F)c3c2)cn1
4
